- target.or.test.system: human CD137 on primary human CD8+ T cells (human, UniProt Q07011 24-255)
- Sequence (Q07011 24-255): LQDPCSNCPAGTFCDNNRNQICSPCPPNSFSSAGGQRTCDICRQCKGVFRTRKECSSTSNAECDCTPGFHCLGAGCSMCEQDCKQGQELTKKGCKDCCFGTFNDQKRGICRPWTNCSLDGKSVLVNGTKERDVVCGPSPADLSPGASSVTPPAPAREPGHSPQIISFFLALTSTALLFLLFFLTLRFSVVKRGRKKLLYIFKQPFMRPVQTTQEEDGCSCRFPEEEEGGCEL
- protocol.details: cell-based or functional assay
Examples of binders with documented Emax (IL-2 pg/ml), NCI-H226 co-culture, Donor B follow.
Return type: number; implicit unit pg/mL.

Record excerpt, results attached:
FS22-172-003-AA/FS28-256-024 (bispecific antibody, human IgG1, kappa, L234A L235A, V domains shown, IgG1 mAb^2 with LALA) VH: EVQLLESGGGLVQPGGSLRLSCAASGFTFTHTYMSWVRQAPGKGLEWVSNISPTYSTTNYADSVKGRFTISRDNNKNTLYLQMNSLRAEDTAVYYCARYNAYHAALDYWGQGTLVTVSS VL: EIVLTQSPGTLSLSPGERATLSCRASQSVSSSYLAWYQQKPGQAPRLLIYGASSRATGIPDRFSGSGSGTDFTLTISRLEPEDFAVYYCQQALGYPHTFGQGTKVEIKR | 1090
FS22-172-003-AA/FS28-256-026 (bispecific antibody, human IgG1, kappa, L234A L235A, V domains shown, IgG1 mAb^2 with LALA) VH: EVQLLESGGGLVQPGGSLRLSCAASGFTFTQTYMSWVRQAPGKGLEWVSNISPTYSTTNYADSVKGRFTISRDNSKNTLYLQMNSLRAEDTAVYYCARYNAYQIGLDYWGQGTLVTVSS VL: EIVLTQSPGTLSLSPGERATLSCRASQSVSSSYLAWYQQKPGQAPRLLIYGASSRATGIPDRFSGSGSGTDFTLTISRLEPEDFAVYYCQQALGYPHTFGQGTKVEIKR | 932

Prompt: // returns reported Emax (IL-2 pg/ml), NCI-H226 co-culture, Donor B for input FS22-172-003-AA/FS28-024-060 (bispecific antibody, human IgG1, kappa, L234A L235A, V domains shown, IgG1 mAb^2 with LALA) VH: EVQLLESGGGLVQPGGSLRLSCAASGFTLSYSSMSWVRQAPGKGLEWVSFITPSTGYTHYADSVKGRFTISRDNSKNTLYLQMNSLRAEDTAVYYCARRALWFDYWGQGTLVTVSS VL: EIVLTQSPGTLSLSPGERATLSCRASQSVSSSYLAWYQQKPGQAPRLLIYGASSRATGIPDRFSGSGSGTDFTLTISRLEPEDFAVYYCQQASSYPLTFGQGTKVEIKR
Completion: 1940

Prompt: // returns reported Emax (IL-2 pg/ml), NCI-H226 co-culture, Donor B for input FS22-172-003-AA/FS28-024-052 (bispecific antibody, human IgG1, kappa, L234A L235A, V domains shown, IgG1 mAb^2 with LALA) VH: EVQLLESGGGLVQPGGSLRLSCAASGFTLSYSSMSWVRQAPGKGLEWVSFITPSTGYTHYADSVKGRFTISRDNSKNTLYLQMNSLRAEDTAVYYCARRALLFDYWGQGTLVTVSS VL: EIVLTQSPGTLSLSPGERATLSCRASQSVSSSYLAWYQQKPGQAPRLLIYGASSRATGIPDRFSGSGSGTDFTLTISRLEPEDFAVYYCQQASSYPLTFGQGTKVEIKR
Completion: 1690
